Source of measurements: paper PMC12340956

Overview of recorded IC50 for various molecules
System: NTS
Assay text: Speed-of-action assay in NTS
Type: cell-based, Schistosoma mansoni
Condition label: Schistosoma mansoni, 4 h; read-out: IC50 (speed of action, NTS)

# query: IC50 of entry Cl.NC1CC1c1ccc(NC(=O)c2ccc(C#CC3CC3)cc2)cc1 (stereo not drawn) [Compound 19]
> 20 µM

Return reported IC50; argument: CCCc1ccc(C(=O)Nc2ccc(C3CC3N)cc2)cc1.Cl (stereo not drawn) [Compound 15]
> 20 µM

Kindly review the next molecule as well.
Item under review: CC#Cc1ccc(C(=O)Nc2ccc(C3CC3N)cc2)cc1.Cl (stereo not drawn) [Compound 18] . Reported IC50?
> 20 µM

====

Measurement target: human LSD1-CoREST complex (Homo sapiens, UniProt O60341)
Construct: made in house
Assay text: ThermoFAD thermal stability assay
Assay type: binding
Condition label: LSD1-CoREST thermal stability
Measurement kind: ΔTm

# ΔTm lookup, item Cl.NC1CC1c1cccc(NC(=O)c2ccc(C#CC3CC3)cc2)c1 (stereo not drawn)
0 °C

====

Test system: NTS
Assay text: Speed-of-action assay in NTS
Type: cell-based, Schistosoma mansoni
Condition label: NTS, 4 h, 20 μM
Measurement kind: Percentage of effect (%)
Numeric only. Scale: %

Study these solved cases before continuing.
# input molecule: CCCc1ccc(C(=O)Nc2ccc(C3CC3N)cc2)cc1.Cl (centres unmarked) ; wanted: its Percentage of effect
38.46

// returns reported Percentage of effect for input C#Cc1ccc(C(=O)Nc2ccc(C3CC3N)cc2)cc1 (centres unmarked) [MC3935, reference compound]
23.08

New cases:
Fill blank: measured Percentage of effect of the molecule CC#Cc1ccc(C(=O)Nc2ccc(C3CC3N)cc2)cc1.Cl (centres unmarked) is ____.
30.77

Name the recorded Percentage of effect for Cl.NC1CC1c1ccc(NC(=O)c2ccc(C#CC3CC3)cc2)cc1 (centres unmarked) .
38.46

So what does the record say about Percentage of effect for NC1CC1c1ccc(NC(=O)c2ccc(-c3ccccc3)cc2)cc1 (centres unmarked) ?
38.46

====

# IC50 per entry
Measurement target: human LSD1-CoREST complex (Homo sapiens)
Construct: made in house
Assay text: HRP-coupled LSD1 inhibition assay
Type: biochemical
Condition label: 10 min preincubation, read-out: IC50 (hLSD1 direct inhibition)

Worked set:
What value of IC50 has been reported for the following compound? Cl.NC1CC1c1ccc(NC(=O)c2ccc(C#Cc3ccccc3)cc2)cc1 (centres unmarked)
4020 nM

Please give the measured IC50 for this compound: CC#Cc1ccc(C(=O)Nc2cccc(C3CC3N)c2)cc1.Cl (centres unmarked)
> 100000 nM

Could you tell me which IC50 is on file for CC#Cc1ccc(C(=O)Nc2ccc(C3CC3N)cc2)cc1.Cl (centres unmarked) ?
130 nM

Item under review: N#Cc1ccc(C(=O)Nc2ccc(C3CC3N)cc2)cc1 (centres unmarked) . Reported IC50?
150 nM

Field request: IC50 | item: C#Cc1cccc(C(=O)Nc2ccc(C3CC3N)cc2)c1.Cl (centres unmarked)
70 nM

Quick check: IC50 of CCCc1ccc(C(=O)Nc2ccc(C3CC3N)cc2)cc1.Cl (centres unmarked) ?
120 nM

Next:
Field request: IC50 | item: Cc1ccc(C(=O)Nc2ccc(C3CC3N)cc2)cc1.Cl (centres unmarked)
150 nM

Field request: IC50 | item: Cl.NC1CC1c1ccc(NC(=O)c2ccc(C#CC3CC3)cc2)cc1 (centres unmarked)
20 nM
